# TARGET_ENTITY: HBV core protein (UniProt P03146)
# Sequence (P03146 whole entry, looked up): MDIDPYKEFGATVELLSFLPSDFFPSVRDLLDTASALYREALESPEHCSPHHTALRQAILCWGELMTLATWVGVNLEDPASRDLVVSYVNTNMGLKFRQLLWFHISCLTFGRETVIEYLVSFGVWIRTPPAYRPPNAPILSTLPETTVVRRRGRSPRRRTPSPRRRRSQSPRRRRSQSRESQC
# Format: biochemical
# SETUP_CONDITIONS: read-out: Assembly Activity (IC50); BODIPY-FL labelled core protein, assembly started with NaCl, read after 6 min
MEASUREMENT_KIND: IC50

# MOLECULE, MEASUREMENT_KIND, OBS_VALUE
data = [
    ("CC(=O)N1CCC(C(=O)Nc2nc3c(s2)CN(C(=O)c2cc4ccccc4[nH]2)CC3)CC1 [Example 410]", "IC50", "< 5 µM"),
    ("O=C(c1cc2ccccc2[nH]1)N1CCc2nc(NC3(c4ccccc4)CC3)sc2C1 [Example 419]", "IC50", "5 to 10 µM"),
    ("Cc1nc2c(s1)CN(C(=O)c1cc3c(Cl)cccc3[nH]1)CC2 [Example 211]", "IC50", "< 5 µM"),
    ("O=C(c1cc2c(F)cc(F)cc2[nH]1)N1CCc2nc(N[C@H]3CC[C@@H](O)CC3)sc2C1 [Example 344]", "IC50", "5 to 10 µM"),
    ("CCc1ccc(F)c2[nH]c(C(=O)N3CCc4nc(NCC5CCOC5)sc4C3)cc12 (stereo not drawn) [Example 254]", "IC50", "< 5 µM"),
    ("O=C(c1cc2ccccc2[nH]1)N1CCc2ncsc2C1 [Example 200]", "IC50", "< 5 µM"),
    ("Cc1nc2c(s1)CN(C(=O)c1cc3cccc(OC(F)F)c3[nH]1)CC2 [Example 182]", "IC50", "< 100 µM"),
    ("CC1(CNc2nc3c(s2)CN(C(=O)c2cc4ccccc4[nH]2)CC3)CCOC1 (stereo not drawn) [Example 49]", "IC50", "< 5 µM"),
    ("NC(=O)c1nc2c(s1)CN(C(=O)c1cc3ccccc3[nH]1)CC2 [Example 201]", "IC50", "< 100 µM"),
]

The measurements presented in this section are drawn from patent US11267825B2.
